B1: F1*; the commonest letter at each place (parent)
chain: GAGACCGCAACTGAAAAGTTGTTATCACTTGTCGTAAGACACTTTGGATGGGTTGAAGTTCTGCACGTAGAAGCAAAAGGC

variants of: B1; assay: fraction ligated after 30 min (ligated reads / total reads); higher = more ligase activity; details: with F1*sub RNA substrate (template-directed ligation), 42 °C
Use 0.8 as the dividing line for fraction ligated, with the line itself on the yes side and lower values as no.

Answered examples (7):
sequence-data: GAGACCGCAACTGAAAAGTTGTTATCACATGTCGTAAGACACTTTGGATAGGTTGAAGTTCTGCACGTAGAAGCAAAAGGC [T29A G50A]
group-label: no

sequence-data: GAGACCGCAACTGAAAAGTTGTTATCACTATTCGTAAGACACTTTGGATGGGTTGAAGTTCTGCACGTAGAAGCAAAAGGC [T30A G31T]
group-label: yes

sequence-data: GAGACCGCAACTGAAAAGTTGTTATCACCTGTCGTAAGACACTTTGGATGGGTTTAAGTTCTGCACGTAGAAGCAAAAGGC [T29C G55T]
group-label: no

sequence-data: GAGACCGCAACTGAAAAGTTGTTATCACTGGTGGTAAGACACTTTGGATGGGTTGAAGTTCTGCACGTAGAAGCAAAAGGC [T30G C33G]
group-label: yes

sequence-data: GAGACCGCAACTGAAAAGTTGTAATCACTTGTCGTAAGACACTTTCGATGGGTTGAAGTTCTGCACGTAGAAGCAAAAGGC [T23A G46C]
group-label: no

sequence-data: GAGACCGCAACTGAAAAGTTGTTATCACTTGTCTGAAGACACTTTGGATGGGTTGAAGTTCTGCACGTAGAAGCAAAAGGC [G34T T35G]
group-label: yes

sequence-data: GAGACCGCAACTGAAAAGTTGTTATCACTTGTCATAAGACCCTTTGGATGGGTTGAAGTTCTGCACGTAGAAGCAAAAGGC [G34A A41C]
group-label: no

Req: # bool: fraction ligated of GAGACCGCAACTGAAAAGTTGTTATCACTTGTCGTAAGATACTTTGTATGGGTTGAAGTTCTGCACGTAGAAGCAAAAGGC [C40T G47T] >= 0.8
Resp: no
